Attribute: melting point

The following molecules have reported results that may help.
In [3]: df
Out[3]:
                                   molecule    assay_value
0  Cc1cccc(N2N=C(C(F)(F)F)CC2c2ccc(S(C)(=O)=O)cc2)c1 (centres unmarked)  114 to 116 °C
1  COc1ccc(C2CC(C(F)(F)F)=NN2c2ccc(S(N)(=O)=O)cc2)cc1 (centres unmarked)  125 to 128 °C
2  CS(=O)(=O)c1ccc(N2N=C(C(F)(F)F)CC2c2ccc(F)c(F)c2)cc1 (centres unmarked)  132 to 135 °C
3  CC1(c2ccccc2)CC(C(F)(F)F)=NN1c1ccc(S(N)(=O)=O)cc1 (centres unmarked)    60 to 66 °C

INPUT: Report melting point, nothing else, for this molecule: NS(=O)(=O)c1ccc(N2N=CCC2c2ccccc2)cc1 (centres unmarked)
OUTPUT: 206 to 208 °C

INPUT: Hello, please tell me recorded melting point for this one: Cc1cccc(C2CC(C(F)(F)F)=NN2c2ccc(S(N)(=O)=O)cc2)c1 (centres unmarked)
OUTPUT: 125 to 128 °C

INPUT: Provide melting point value for the following molecule: Cc1ccc(C2CC(C#N)=NN2c2ccc(S(C)(=O)=O)cc2)cc1 (centres unmarked)
OUTPUT: 162 to 164 °C

INPUT: Please give the documented melting point of Cc1ccc(C2CC(C(N)=O)=NN2c2ccc(S(N)(=O)=O)cc2)cc1 (centres unmarked)
OUTPUT: 210 to 215 °C

INPUT: Complete the entry with melting point for COc1ccc(C2CC(C(F)(F)F)=NN2c2ccc(S(N)(=O)=O)cc2)cc1C (centres unmarked)
OUTPUT: 170 to 175 °C

INPUT: For the molecule Cc1ccc(C2CC(C(F)(F)F)=NN2c2ccc(S(N)(=O)=O)cc2)c(F)c1 (centres unmarked) , give its measured melting point value.
OUTPUT: 166 to 167 °C

INPUT: Using known records, supply melting point for CC1=NN(c2ccc(S(C)(=O)=O)cc2)C(c2ccc(C(F)(F)F)cc2)C1 (centres unmarked)
OUTPUT: 136 to 138 °C

INPUT: Using known records, supply melting point for CS(=O)(=O)c1ccc(N2N=C(C(F)(F)F)CC2c2ccccc2F)cc1 (centres unmarked)
OUTPUT: 117 to 121 °C

INPUT: Provide only the value of recorded melting point for Cc1ccc(C2CC(C(F)(F)F)=NN2c2ccc(S(N)(=O)=O)cc2)c(C)c1 (centres unmarked)
OUTPUT: 158 to 160 °C

INPUT: State its melting point for this molecule: Cc1ccc(C2CC(C(F)(F)F)=NN2c2ccc(S(N)(=O)=O)cc2)cc1C (centres unmarked)
OUTPUT: 152 to 155 °C

INPUT: Report melting point, nothing else, for this molecule: Cc1c(F)cccc1C1CC(C(F)(F)F)=NN1c1ccc(S(N)(=O)=O)cc1 (centres unmarked)
OUTPUT: 193 to 195 °C

INPUT: State, in one line, measured melting point of NS(=O)(=O)c1ccc(N2N=C(C(F)(F)F)CC2c2ccc(F)c(F)c2F)cc1 (centres unmarked)
OUTPUT: 159 to 161 °C

INPUT: Assign melting point to the following record: NS(=O)(=O)c1ccc(N2N=C(C(F)(F)F)CC2c2ccc(C(F)(F)F)cc2C(F)(F)F)cc1 (centres unmarked)
OUTPUT: 212 to 214 °C

INPUT: Please look at this molecule and report its melting point: NS(=O)(=O)c1ccc(N2N=C(C(F)(F)F)CC2c2ccc(Cl)cc2Cl)cc1 (centres unmarked)
OUTPUT: 143 to 145 °C

INPUT: Assign melting point to the following record: NS(=O)(=O)c1ccc(N2N=C(C(F)(F)F)CC2c2ccc(F)c(Cl)c2)cc1 (centres unmarked)
OUTPUT: 171 to 173 °C

INPUT: Look up melting point of COc1ccc(C2CC(C(F)(F)F)=NN2c2ccc(S(N)(=O)=O)cc2)c(C)c1 (centres unmarked) and report it.
OUTPUT: 148 to 150 °C

INPUT: Please indicate melting point recorded for CC1=NN(c2ccc(S(C)(=O)=O)cc2)C(c2ccc(F)cc2)C1 (centres unmarked)
OUTPUT: 120 to 123 °C

INPUT: Tell me melting point reported for NS(=O)(=O)c1ccc(N2N=C(C(F)(F)F)CC2c2ccc(Cl)cc2F)cc1 (centres unmarked)
OUTPUT: 180 to 185 °C

INPUT: Specify melting point for NS(=O)(=O)c1ccc(N2N=C(C(F)(F)F)CC2c2cccc(F)c2)cc1 (centres unmarked) and stop.
OUTPUT: 132 to 133 °C

INPUT: Give reported melting point value for Cc1ccc(N2N=C(C(F)(F)F)CC2c2ccc(S(C)(=O)=O)cc2)cc1 (centres unmarked)
OUTPUT: 140 to 143 °C
